tested on: HeLa 229; assay: Cytotoxicity against human HeLa 229 cells assessed as cell viability at 10 uM after 48 hrs resazurin dye based fluorescence method relative to control; conditions: hela 229, 48 h
Give Activity for every item shown.
Give bare numbers, in %.

The cases that follow already have their Activity on record.
compound	reported-value
COc1c(Cc2cccc(C)c2C)cc(=O)n2c1SCC2C(=O)Nc1ccccc1 (racemic)	89
Cc1cc(F)cc(NC(=O)C2CSc3c(NS(C)(=O)=O)c(Cc4cccc5ccccc45)cc(=O)n32)c1 (racemic)	91
COc1c(Cc2cccc(C)c2C)c(N)c(=O)n2c1SCC2C(=O)Nc1ccc(C)cc1 (racemic)	93

Give Activity for all compounds that follow.
1. O=C(Nc1ccccc1)C1CSc2c(O)c(Cc3cccc4ccccc34)cc(=O)n21 (racemic)
2. COc1c(Cc2cccc3ccccc23)c(N)c(=O)n2c1SCC2C(=O)Nc1ccccc1 (racemic)
3. COc1c(Cc2cccc(C)c2C)c(N)c(=O)n2c1SCC2C(=O)Nc1ccccc1 (racemic)

1. 93
2. 94
3. 94

----------
experiment: Cmax in C3H/HeJ mouse at 10 mg/kg, po measured upto 24 hrs; type: ADME, organism-based; set-up: dose 10 mg/kg, route oral; details: in vivo
measure: Cmax (µM)
Numbers only, in µM.

Give Cmax for the following molecule: CS(=O)(=O)Nc1c(Cc2cccc3ccccc23)cc(=O)n2c1SCC2C(=O)Nc1ccccc1 (racemic)
3.7

----------
tested on: HeLa 229; experiment: Cytotoxicity against human HeLa 229 cells assessed as cell viability at 10 uM after 48 hrs resazurin dye based fluorescence method relative to control; details: hela 229, 48 h
Give Activity for every item shown.

molecule	Activity
COc1c(Cc2cccc(C)c2C)cc(=O)n2c1SCC2c1nc(-c2ccccc2)no1 (racemic)	91%
CS(=O)(=O)Nc1c(Cc2cccc3ccccc23)cc(=O)n2c1SCC2c1nc(-c2ccccc2)n[nH]1 (racemic)	93%
CN(C)c1c(Cc2cccc3ccccc23)cc(=O)n2c1SCC2C(=O)Nc1ccccc1 (racemic)	92%
CS(=O)(=O)Nc1c(Cc2cccc3ccccc23)cc(=O)n2c1SCC2C(=O)Nc1ccccc1 (racemic)	94%
CC(=O)Nc1c(Cc2cccc3ccccc23)cc(=O)n2c1SCC2C(=O)Nc1ccccc1 (racemic)	90%

Give Activity for all molecules that follow.
1. COc1c(Cc2cccc3ccccc23)c(N)c(=O)n2c1SCC2C(=O)Nc1ccc(C)cc1 (racemic)
2. COc1c(Cc2cccc3ccccc23)cc(=O)n2c1SCC2C(=O)Nc1ccccc1 (racemic)
3. CS(=O)(=O)Nc1c(Cc2cccc3ccccc23)cc(=O)n2c1SCC2n1cc(-c2ccccc2)nn1 (racemic)
4. COc1c(Cc2cccc3ccccc23)cc(=O)n2c1SCC2n1cc(-c2ccccc2)nn1 (racemic)
5. COc1c(Cc2cccc(C)c2C)cc(=O)n2c1SCC2C(=O)Nc1cc(C)cc(F)c1 (racemic)
6. COc1c(Cc2cccc(C)c2C)c(N)c(=O)n2c1SCC2c1nc(-c2ccccc2)no1 (racemic)
7. CC(C)Nc1c(Cc2cccc3ccccc23)cc(=O)n2c1SCC2C(=O)Nc1ccccc1 (racemic)
8. Cc1cccc(NC(=O)C2CSc3c(NS(C)(=O)=O)c(Cc4cccc5ccccc45)cc(=O)n32)c1 (racemic)

91%
91%
91%
87%
90%
94%
91%
92%

Give Activity for all molecules that follow.
1. COc1c(Cc2cccc3ccccc23)cc(=O)n2c1SCC2C(=O)Nc1ccc(C)cc1 (racemic)
2. COc1c(Cc2cccc(C)c2C)c(N)c(=O)n2c1SCC2C(=O)Nc1cc(C)cc(F)c1 (racemic)
3. COC(=O)Nc1c(Cc2cccc3ccccc23)cc(=O)n2c1SCC2C(=O)Nc1ccccc1 (racemic)
4. COc1c(Cc2cccc(C)c2C)cc(=O)n2c1SCC2C(=O)Nc1ccc(C)cc1 (racemic)

["89%", "92%", "88%", "88%"]

----------
experiment: Solubility of compound in PBS at 0.2 to 0.5 mg after 48 hrs by LC-MS/MS based shake flask method; assay type: physicochemical
Give solubility thermodynamic at 48 h for every item shown.
Answers are plain numbers, in µM.

compound	solubility thermodynamic at 48 h, µM
COc1c(Cc2cccc(C)c2C)cc(=O)n2c1SCC2C(=O)Nc1cc(C)cc(F)c1 (racemic)	0.32
CS(=O)(=O)Nc1c(Cc2cccc3ccccc23)cc(=O)n2c1SCC2C(=O)Nc1ccccc1 (racemic)	1.3

Note: attention shifts to another entry.
Give solubility thermodynamic at 48 h for the following compound: Nc1c(Cc2cccc3ccccc23)c(C2CC2)c2n(c1=O)C(n1cc(-c3ccccc3)nn1)CS2 (racemic)
0.31

----------
assay: Cmax in C3H/HeOuJ mouse at 1 mg/kg, iv measured upto 24 hrs; details: in vivo
measure: Cmax (nM)
Numbers only, in nM.

Give Cmax for the following compound: CS(=O)(=O)Nc1c(Cc2cccc3ccccc23)cc(=O)n2c1SCC2C(=O)Nc1ccccc1 (racemic)
1700

Every entry's value here was drawn from ChEMBL document CHEMBL4373686.
